Tested on: CEM cells HIV-1 protection, formazan growth assay
Assay: NCI AIDS Antiviral Assay
pEC50: −log10 of the molar value.
pEC50 for assorted molecules
observable: pEC50

1) Oc1cc(O)c2c(c1)O[C@@H](c1ccc(O)c(O)c1)[C@H](O)C2 | < 3.70
2) O=C1OCSc2ccccc21 | < 2.97
3) CCN(CC)CCN1C(=O)CN=C(c2ccccn2)c2cc(Cl)ccc21 | < 3.35
4) CC1(C)SCc2nc3ccccc3n21 | < 3.70
5) O=C(O)c1cccc(S(=O)(=O)NN2C(=O)CSC2c2ccc(Cl)cc2Cl)c1 (configuration not stated) | < 3.70
6) COc1ccc2c(c1)CCc1[nH]c3ccccc3c1CCCC2 | < 4.21
7) O=C(CC(=O)CC(O)(C(F)(F)F)C(F)(F)F)CC(O)(C(F)(F)F)C(F)(F)F | < 3.70
8) Cn1ncc2c(=O)[nH]cnc21 | < 3.50
9) COC1/C=C/OC2(C)Oc3c(C)c(O)c4c(O)c(cc(OCC(=O)N5CC(C)(C)C5)c4c3C2=O)NC(=O)/C(C)=C/C=CC(C)C(O)C(C)C(O)C(C)C(OC(C)=O)C1C (configuration not stated) | < 3.70
10) CC1(C)O[C@H]2OC(CO[Si](C)(C)C(C)(C)C)C(N=[N+]=[N-])[C@H]2O1 (some centres not stated) | < 4.70
11) CCCc1cc(=O)oc2c3c(cc(OC)c12)O[C@H](C)[C@H](C)C3=O | < 3.70
12) CCCCCCC(/C=N/O)C(C)(O)CCC (configuration not stated) | < 3.95
13) NC1=NS(=O)(=O)Nc2nc(-c3ccc(Cl)cc3)[nH]c21 | < 3.70
14) COc1ccc(S(=O)(=O)c2ccc(C(=O)O)cc2)cc1 | < 3.70
15) CO/C(=N\N=C\c1ccc(OC)c(OC)c1)c1ccncc1 | < 3.36
16) C/C(Cl)=N/OC(=O)Nc1ccc(F)c([N+](=O)[O-])c1 | < 3.70
17) CC(C)(C)[Si](C)(C)OCC1OC(n2ccc(=O)[nH]c2=O)C(OC(=S)Oc2ccccc2)C1O[Si](C)(C)C(C)(C)C (configuration not stated) | < 3.70
18) NC(=O)c1[nH]nc(C2OC(CO)C(O)C2O)c1O (configuration not stated) | < 3.02
19) c1ccc(CSc2ccc3nncc(SCc4ccccc4)c3c2)cc1 | < 4.24
20) CC1(C)C=C(/C=N/Nc2ccc([N+](=O)[O-])cc2)C(C#N)=C(O)C1(C#N)C#N | < 3.70
21) Cc1cccc(/C=N/NC(=S)NCc2ccccn2)n1 | < 3.70
22) Nc1ncnc2c1Sc1nc(Cl)ccc1N2 | < 4.83
23) CCSc1nc(-c2ccc(OC)cc2)c(C#N)c(=O)n1C1OCC(OC(C)=O)C(OC(C)=O)C1OC(C)=O (configuration not stated) | < 3.70
24) O=c1[nH]c(=O)n(C2CC(O)C(CO)O2)c2nc3ccc4cc5ccccc5cc4c3nc12 (configuration not stated) | < 4.30
25) COC(=O)C1=C(C)N2[C@H](C(=O)O)CS[C@@]2(C)[C@H](C(=O)OC)[C@H]1c1cccc([N+](=O)[O-])c1 | < 3.70
26) COc1ccc2nc3c(nc2c1)C(C)(C)C=C3c1ccc(Br)cc1 | < 4.00
27) O=C(/C=C/c1ccccc1)c1cccs1 | < 3.70
28) COc1ccc(NS(=O)c2ccc(-c3ccccc3)cc2)cc1 (configuration not stated) | < 3.70
29) CC1OC2COC(C)OC2C(C2CN2)O1 (configuration not stated) | < 3.03
30) CC(=O)Nc1ccc(/C=N\N2C(=O)c3ccccc3C2=O)cc1 | < 4.21
31) CC(C)CCCC(C)[C@H]1CCC2C3CC[C@H]4C[C@@H](CCCP(=O)(c5ccccc5)c5ccccc5)CC[C@]4(C)C3CC[C@@]21C (some centres not stated) | < 4.30
32) CC(O)CC[P+](c1ccccc1)(c1ccccc1)c1ccccc1 (configuration not stated) | < 3.70
33) CC(C)(CC1=CC(=O)C=CC1=O)Cc1ccccc1 | < 3.70
34) COc1ccc(-c2oc3cc(OC)c(OC)c(O)c3c(=O)c2O)cc1O | < 3.70
35) C#CCN1C(=O)c2ccccc2S1(=O)=O.[C-]#[O+].[C-]#[O+].[C-]#[O+].[C-]#[O+].[C-]#[O+].[C-]#[O+].[Co].[Co] | < 3.70
36) CCNC(=O)c1ccccc1S(C)=O (configuration not stated) | < 3.70
37) NC(=O)c1c(NC=O)ncn1C1OCC(O)C(O)C1O (configuration not stated) | < 3.70
